Assay: Absorption wave length of the oxidized chromogen
Type: physicochemical
Conditions: pH value 6.5
valueType: Wave length range in nm (nm)
I only need the number, in nm, no unit after it.

Below, 2 molecules whose answers are already recorded.
Request: For Cc1cc(-c2ccc(N)c(C)c2)ccc1N , what is its reported Wave length range in nm?
Response: 430

Request: For Nc1ccc(-c2ccc(N)c(OCCCS(=O)(=O)O)c2)cc1OCCCS(=O)(=O)O , what is its reported Wave length range in nm?
Response: 450

New cases:
Request: For COc1cc(-c2ccc(N)c(OC)c2)ccc1N , what is its reported Wave length range in nm?
Response: 450

Request: For Cl.Cl.Nc1ccc(-c2ccc(N)c(OCCCC(=O)O)c2)cc1OCCCC(=O)O , what is its reported Wave length range in nm?
Response: 450

----------
Reported solubility values are given for each entry in this list.
Test: Solubility of the chromogens in water / at pH 7, reduced and oxidized state
Conditions: pH 7, water, Solubility at pH 7, reduced (uncolored), pH 7, reduced state
I only need the number, in µg/mL, no unit after it.

Below, 3 molecules whose answers are already recorded.
Request: For COc1cc(-c2ccc(N)c(OC)c2)ccc1N , what is its reported solubility?
Response: 110

Request: For Nc1ccc(-c2ccc(N)c(OCCCS(=O)(=O)O)c2)cc1OCCCS(=O)(=O)O , what is its reported solubility?
Response: 12000

Request: For Cl.Cl.Nc1ccc(-c2ccc(N)c(OCCCC(=O)O)c2)cc1OCCCC(=O)O , what is its reported solubility?
Response: 70000

# next molecule below
Request: For Cc1cc(-c2ccc(N)c(C)c2)ccc1N , what is its reported solubility?
Response: 130

----------
Test: Solubility of the chromogens in water / at pH 7, reduced and oxidized state
Settings: pH 7, water, Solubility at pH 7, oxidized (colored), pH 7, oxidized state
Reported solubility values are given for each entry in this list.
I only need the number, in µg/mL, no unit after it.

Request: For Cl.Cl.Nc1ccc(-c2ccc(N)c(OCCCC(=O)O)c2)cc1OCCCC(=O)O [Example 1(d)] , what is its reported solubility?
Response: 700

Request: For COc1cc(-c2ccc(N)c(OC)c2)ccc1N [o-dianisidine] , what is its reported solubility?
Response: 10

Request: For Cc1cc(-c2ccc(N)c(C)c2)ccc1N [o-tolidine] , what is its reported solubility?
Response: 7

Request: For Nc1ccc(-c2ccc(N)c(OCCCS(=O)(=O)O)c2)cc1OCCCS(=O)(=O)O [Example 3(b)] , what is its reported solubility?
Response: 120

----------
Reported Extinction decrease % after irradiation 5 min. under 10 Watt tungsten lamp values are given for each entry in this list.
Assay: Light stability: extinction decrease after irradiation of the oxidized chromogen
Type: physicochemical
Settings: 450 nm (o-tolidine 430 nm), pH value 6.5
I only need the number, in %, no unit after it.

Request: For Nc1ccc(-c2ccc(N)c(OCCCS(=O)(=O)O)c2)cc1OCCCS(=O)(=O)O , what is its reported Extinction decrease % after irradiation 5 min. under 10 Watt tungsten lamp?
Response: 2

Request: For COc1cc(-c2ccc(N)c(OC)c2)ccc1N , what is its reported Extinction decrease % after irradiation 5 min. under 10 Watt tungsten lamp?
Response: 26

Request: For Cl.Cl.Nc1ccc(-c2ccc(N)c(OCCCC(=O)O)c2)cc1OCCCC(=O)O , what is its reported Extinction decrease % after irradiation 5 min. under 10 Watt tungsten lamp?
Response: 2

# next compound below
Request: For Cc1cc(-c2ccc(N)c(C)c2)ccc1N , what is its reported Extinction decrease % after irradiation 5 min. under 10 Watt tungsten lamp?
Response: 1
